- ASSAY REMARKS: NCI Yeast Anticancer Drug Screen. Data for the rad50 strain (AID 155);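 further: 0% = growth of vehicle-only cultures of the same strain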
- CONDITION CONTEXT: S. cerevisiae rad50 strain growth inhibition; at 1.2 µM; stronger effect = higher value
- Experimental: Growth inhibition of yeast strains with defined genetic alterations is measured as a screen for potential anti-cancer activity. Selected strains with alterations in DNA damage repair or cell cycle control were exposed to compounds and growth inhibition was measured relative to vehicle treated controls. The strain used in this assay is rad50
This is part of a sample that, as a whole, favours compounds with a hit. Of some 79,000 tested, about 15% had one in any assay.
VALUE TYPE: growth inhibition (%)

[[record]]
compound = "Nc1nc(N)c2cc(Sc3ccc4ccccc4c3)ccc2n1"
value_type = "growth inhibition"
recorded_result = -8

[[record]]
compound = "CC(=O)C1(O)Cc2c(O)c3c(c(O)c2C(OC2CC(N)C(O)C(C)O2)C1)C(=O)c1ccccc1C3=O (stereo not given)"
value_type = "growth inhibition"
recorded_result = 86

[[record]]
compound = "Nc1ccc(CCl)cc1Cc1c(O)ccc2ccccc12"
value_type = "growth inhibition"
recorded_result = 1

[[record]]
compound = "COc1cc(N)ccc1Nc1c2ccccc2nc2ccccc12"
value_type = "growth inhibition"
recorded_result = 6

[[record]]
compound = "Cc1ccccc1NC(=O)Cc1csc(N/N=C2\\NC(=O)/C(=C/c3cccc([N+](=O)[O-])c3)S2)n1"
value_type = "growth inhibition"
recorded_result = -4


----------
- ASSAY REMARKS: NCI Yeast Anticancer Drug Screen. Data for the wt2 strain (AID 169);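 further: 0% = growth of vehicle-treated yeast cultures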
- CONDITION CONTEXT: S. cerevisiae wt2 strain growth inhibition; at 33.0 µM
Compounds without any hit were thinned out: in the full panel of roughly 79,000, 15% have a hit. The source made the active and inactive calls. Cut-off read from the data, not from the text of the source: active = growth inhibition above about 70%; inactive = the rest.
Outcomes: active, inactive

[[record]]
record_smiles = "CC(=O)N1C(=O)/C(=C\\C(=O)c2ccc([N+](=O)[O-])cc2)c2ccccc21"
assigned_label = "active"

[[record]]
record_smiles = "COc1ccc(SCc2cc(OC)ccc2OC)cc1"
assigned_label = "inactive"

[[record]]
record_smiles = "C=Cc1cnc([N+](=O)[O-])n1C"
assigned_label = "inactive"

[[record]]
record_smiles = "COC(=O)c1cccc(C)c1C(=O)c1c(C)cc(C)cc1C"
assigned_label = "inactive"

[[record]]
record_smiles = "OB(O)c1ccccc1C#Cc1ccccc1B(O)O"
assigned_label = "inactive"

[[record]]
record_smiles = "O=S(=O)(c1cc(Cl)ccc1O)c1cc(Cl)ccc1O"
assigned_label = "active"


----------
- ASSAY REMARKS: NCI Yeast Anticancer Drug Screen. Data for the mlh1 rad18 strain (AID 175)
- CONDITION CONTEXT: S. cerevisiae mlh1 rad18 strain growth inhibition; at 50.0 µM (retest, dose inferred, filed as 5.0); stronger effect = higher value
Compounds without any hit were thinned out: in the full panel of roughly 79,000, 15% have a hit.
VALUE TYPE: growth inhibition (%)

[[record]]
molecule = "O=C1OC2C(O)COC2(OCc2c[nH]c3ccccc23)C1O (stereo unspecified) (tested in a mixture with another compound)"
recorded_result = 26

[[record]]
molecule = "CCN(CC)CCNC(=O)c1nn(-c2ccc(Cl)cc2)c2c1CCc1cc(OC)ccc1-2"
recorded_result = 81

[[record]]
molecule = "N#CSC1CCCCNC1=O (stereo unspecified)"
recorded_result = 58

[[record]]
molecule = "Cc1ccc(S(=O)(=O)Nc2ccc3c(c2)C(O)c2ccccc2-3)cc1 (stereo unspecified)"
recorded_result = 40

[[record]]
molecule = "Cc1onc(-c2ccccc2Cl)c1C1=N/C(=C/c2cc(Cl)cc(Cl)c2O)C(=O)O1"
recorded_result = 46

[[record]]
molecule = "Cc1c(-c2ccccc2)[nH]c2ccccc12"
recorded_result = 96

[[record]]
molecule = "Cc1ccc(I)cc1N=C=S"
recorded_result = 50

[[record]]
molecule = "O=c1[nH]cc(/C=N\\Nc2ccccc2)c(=O)[nH]1"
recorded_result = 81

[[record]]
molecule = "CCOP1(=O)C=C(Sc2ccc([N+](=O)[O-])cc2[N+](=O)[O-])C(C)(C)O1 (stereo unspecified)"
recorded_result = 60

[[record]]
molecule = "CCC(c1ccc(O)cc1)C(CC)c1ccc(OCCN)cc1 (stereo unspecified)"
recorded_result = 87

[[record]]
molecule = "O/N=C/C1c2ccccc2-c2ccccc21"
recorded_result = 39


----------
- ASSAY REMARKS: NCI Yeast Anticancer Drug Screen. Data for the rad50 strain (AID 155);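 further: 0% = growth of vehicle-only cultures of the same strain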
- CONDITION CONTEXT: S. cerevisiae rad50 strain growth inhibition; at 50.0 µM; stronger effect = higher value
About 79,000 compounds went through this panel and 15% of them were active in at least one assay; those are over-represented in the sample as a whole.
VALUE TYPE: growth inhibition (%)

[[record]]
compound = "O=NN(CCCl)C(=O)NCCCl"
recorded_result = 35.6

[[record]]
compound = "OCCNCCOc1ccc(/C(=C(/Cl)c2ccccc2)c2ccccc2)cc1"
recorded_result = 87.1

[[record]]
compound = "N#C/C(=C1C=C(Br)/C(=N\\O)C=C\\1Cl)c1cccc2ccccc12"
recorded_result = 89.2

[[record]]
compound = "CCOC(=O)c1csc(Br)n1"
recorded_result = 98.6

[[record]]
compound = "COc1ccc(N=N/C(=N\\NC(=O)c2cc(Br)ccc2O)c2ccc(N(CCC#N)CCC#N)cc2OC)cc1"
recorded_result = 45.1

[[record]]
compound = "CCN(CC)CCNC(=O)c1nn(-c2ccc(Cl)cc2)c2c1CCc1cc(OC)ccc1-2"
recorded_result = 59.2

[[record]]
compound = "Cc1ccc(S(=O)(=O)N(C)c2ccc(Cl)cc2C2=NCCc3ccccc32)cc1"
recorded_result = 89

[[record]]
compound = "CCN1/C(=C/c2ccc3ccccc3[n+]2CC)C=Cc2ccccc21"
recorded_result = 90.5

[[record]]
compound = "O=C(/C=N/O)Nc1cc(Cl)c(Cl)cc1Cl"
recorded_result = 79.2

[[record]]
compound = "Cc1ccc(CNc2ccc(Br)cc2)cc1"
recorded_result = 62.8

[[record]]
compound = "N#C/C(=C\\c1ccccc1)c1ccccc1F"
recorded_result = 44.1

[[record]]
compound = "CC1CCC2(C(=O)O)CCC3(C)C(=CCC4C5(C)CC(O)C(O)C(C)(CO)C5C(O)CC43C)C2C1C (stereo not given)"
recorded_result = 76.9

[[record]]
compound = "C=C1N(C)c2ccc(Cl)cc2C1(C)C"
recorded_result = 88.9

[[record]]
compound = "Cc1cc(C)c(N2C(=O)CC(Sc3ccccc3N)C2=O)c(C)c1 (stereo not given)"
recorded_result = 30.1

[[record]]
compound = "CC(C)c1[nH]nc(C(N)=O)c1N=NN(C)C"
recorded_result = 91.5

[[record]]
compound = "N#CC(=S)Nc1cccc(Cl)c1"
recorded_result = 46.9

[[record]]
compound = "C/C=C/[P+](c1ccccc1)(c1ccccc1)c1ccccc1"
recorded_result = 81.2

[[record]]
compound = "COC(=O)c1oc([N+](=O)[O-])c(Cl)c1Cl"
recorded_result = 97

[[record]]
compound = "N#C/C(=C/N1C(=O)/C(=C/c2ccc([N+](=O)[O-])cc2)SC1=S)c1nc2ccccc2s1"
recorded_result = 87.3

[[record]]
compound = "Cc1cc(Cl)nc2nc(Cl)c(N)cc12"
recorded_result = 38.6

[[record]]
compound = "O=C1CSC(=S)N1Cc1ccc(Cl)cc1Cl"
recorded_result = 99.1

[[record]]
compound = "Cc1ccc(Nc2n[nH]c(=S)s2)cc1"
recorded_result = 87

[[record]]
compound = "Cn1c2nc3ccccc3c-2nc2ccccc21"
recorded_result = 98.6

[[record]]
compound = "O=C1C=CC(=Nc2ccccc2)c2ccccc21"
recorded_result = 37.9

[[record]]
compound = "S=c1cn[nH]c2ccc(Br)cc12"
recorded_result = 69.5


----------
- ASSAY REMARKS: NCI Yeast Anticancer Drug Screen. Data for the rad18 strain (AID 177)
- CONDITION CONTEXT: S. cerevisiae rad18 mutant growth inhibition; at 3.7 µM
Compounds without any hit were thinned out: in the full panel of roughly 79,000, 15% have a hit. Calls of active or inactive are those of the source. Cut-off read from the data, not from the text of the source: active = growth inhibition above about 70%; inactive = the rest.
Outcomes: 1.0 for active, 0.0 for inactive

[[record]]
molecule = "O=C(CNS(=O)(=O)Cc1ccccc1)NNc1ccccc1"
assigned_label = 0.0

[[record]]
molecule = "CC(=O)Oc1ccc(N2C(=O)C3c4[nH]c5ccccc5c4C4CCC(C(C)(C)C)CC4C3C2=O)cc1 (stereo unspecified)"
assigned_label = 1.0

[[record]]
molecule = "Nc1nc2c(c(=O)[nH]1)NC(CCNc1ccc(C(=O)O)cc1)CN2 (stereo unspecified)"
assigned_label = 0.0

[[record]]
molecule = "N#C/C(=C1C=C/C(=N/O)c2ccccc2/1)c1ccccc1"
assigned_label = 0.0

[[record]]
molecule = "COc1cc(N)ccc1Nc1c2ccccc2nc2ccccc12"
assigned_label = 0.0

[[record]]
molecule = "CC(=O)CC(=O)/C=C/c1cccs1"
assigned_label = 0.0

